So I've got a bunch of compounds here, and I need their IC50 values.
- studyTarget: human 11β-HSD1 (Homo sapiens (Human), UniProt P28845)
- Sequence (P28845 whole entry): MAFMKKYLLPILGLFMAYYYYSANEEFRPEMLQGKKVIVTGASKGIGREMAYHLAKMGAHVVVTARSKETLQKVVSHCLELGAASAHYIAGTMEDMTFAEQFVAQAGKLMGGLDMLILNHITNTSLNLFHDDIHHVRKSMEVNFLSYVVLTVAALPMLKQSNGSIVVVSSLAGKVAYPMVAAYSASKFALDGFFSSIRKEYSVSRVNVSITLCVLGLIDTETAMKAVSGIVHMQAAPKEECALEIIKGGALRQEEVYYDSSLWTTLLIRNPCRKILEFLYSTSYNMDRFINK
- methodSummary: HTRF cortisol assay in 11β-HSD1 overexpressing CHO cells
- Assay type: cell-based
- settings: human 11β-HSD1 overexpressing CHO cells, 160 nM cortisone, 3 hr at 37° C., read-out: IC50(nM) to 11β-HSD-1
- Protocol: The full-length cDNA molecule coding for human or mouse 11β-HSD1 was inserted into pcDNA (Promega) as mammalian expression vectors and transformed into CHO cells for 5 hr using Lipofectamine plus (Invitrogen) in accordance with manufacturer's manual, followed by stabilization for 48 hr. […] The in vitro inhibitory activities of the novel compounds to human 11β-HSD1 were evaluated in accordance with homogenous time-resolved fluorescence (HTRF). […]
Express your answer in nM, writing the number without its unit.

q: Quote IC50 reported for C=C1CN(CC(=O)NC2C3CC4CC2CC(C(N)=O)(C4)C3)S(=O)(=O)N(c2c(Cl)cc(Cl)cc2Cl)C1 (stereo not shown) [Compound 175] please.
a: 14

q: Look up and report measured IC50 for this entry: CN(CC(=O)NC1C2CC3CC1CC(C(N)=O)(C3)C2)S(=O)(=O)N(C)c1c(Cl)cc(Cl)cc1Cl (stereo not shown) [Compound 123]
a: 0.8

q: Answer with the recorded IC50 of O=C(CN1CCCN(c2ccccc2)S1(=O)=O)NC1C2CC3CC(C2)CC1C3 (stereo not shown) [Compound 2] only.
a: 12

q: Retrieve IC50 measured for C[C@@H]1CN(CC(=O)NC2C3CC4CC2CC(C(N)=O)(C4)C3)S(=O)(=O)N(c2c(Cl)cc(C(F)(F)F)cc2Cl)C1 (stereo partly shown) [Compound 196] and print it.
a: 1.3

Reference for the values: patent US9073906B2
